Task for the reader: assign each of the following compounds its reported nuclei count, normalised.
# testProtocol: nuclear p53 accumulation, HPV+ cells – imaging, p53-positive nuclei imaging, 24 h, 48 h (AID 1508601)
# testSettings: 24/48 h, measured here: cell number at 24 h, Library stock concentration: 123 uM
Hit rate of the full screen: of about 5,700 compounds, about 85 (1%) were called active. The full list was thinned out, with actives kept by preference.
Number only, in %; omit the unit.

Ask: Endpoint output: nuclei count, normalised of OC(c1cc(C(F)(F)F)nc2c(C(F)(F)F)cccc12)[C@H]1CCCCN1 (some centres not stated) . Value?
Result: 109

Ask: Requested field: nuclei count, normalised. Item: CN(C)CCC(CSc1ccccc1)Nc1ccc(S(=O)(=O)NC(=O)c2ccc(N3CCN(Cc4ccccc4-c4ccc(Cl)cc4)CC3)cc2)cc1[N+](=O)[O-] (configuration not stated)
Result: 117

Ask: State the recorded nuclei count, normalised for this entry: CCOC(=O)c1sc(NC(=O)c2ccco2)c(SC#N)c1C
Result: 109

Ask: Reported nuclei count, normalised, compound CC(=O)OC1C(=O)[C@]2(C)C(O)CC3OC[C@@]3(OC(C)=O)C2C(OC(=O)c2ccccc2)[C@]2(O)CC(OC(=O)C(O)C(NC(=O)c3ccccc3)c3ccccc3)C(C)=C1C2(C)C (some centres not stated) : ____
Result: 43.5

Ask: Please report the recorded nuclei count, normalised for COC(=O)C#Cc1ccc([N+](=O)[O-])cc1 .
Result: 103

Ask: Fill in the blank: the reported nuclei count, normalised of NC(=O)c1ncn(C2OC(CO)C(O)C2O)c1O (configuration not stated) is ____.
Result: 107

Ask: Which nuclei count, normalised value belongs to CC(=O)NC(CSC(=S)NSc1ccc(SNC(=S)SCC(NC(C)=O)C(=O)O)cc1)C(=O)O (configuration not stated) ?
Result: 119

Ask: Form field: reported nuclei count, normalised of C=C1C(=O)OC(CCCCCCCC)C1C(=O)O (configuration not stated)
Result: 110

Ask: Reported nuclei count, normalised, compound N#CSc1cc(SC#N)c(N)nc1N : ____
Result: 114

Ask: What value of nuclei count, normalised has been reported for the following compound? Nc1ccn(C2OC(CO)C(O)C2F)c(=O)n1 (configuration not stated)
Result: 60.1

Ask: What value of measured nuclei count, normalised is listed for O=C(O)c1ccccc1SC1=NS(=O)(=O)c2ccccc21 ?
Result: 126

Ask: Entry CN(NC(=O)CC(=O)NN(C)C(=S)c1ccccc1)C(=S)c1ccccc1 has what nuclei count, normalised?
Result: 64.8

---

# targetOfAssay: Cellular tumor antigen p53 (Homo sapiens) (UniProt P04637)
# Sequence (P04637 whole entry, looked up): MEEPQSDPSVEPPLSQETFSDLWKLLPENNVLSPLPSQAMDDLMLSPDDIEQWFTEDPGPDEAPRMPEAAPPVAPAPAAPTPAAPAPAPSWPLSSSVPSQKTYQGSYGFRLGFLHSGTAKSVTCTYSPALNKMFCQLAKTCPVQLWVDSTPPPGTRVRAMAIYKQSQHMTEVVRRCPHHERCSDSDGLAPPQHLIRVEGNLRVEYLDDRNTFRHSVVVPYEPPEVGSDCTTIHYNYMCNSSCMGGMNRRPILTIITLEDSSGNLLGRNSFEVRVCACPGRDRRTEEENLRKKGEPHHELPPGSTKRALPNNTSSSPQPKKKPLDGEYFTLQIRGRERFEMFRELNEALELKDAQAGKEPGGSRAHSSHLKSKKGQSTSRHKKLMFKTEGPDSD
# testProtocol: nuclear p53 accumulation, HPV+ cells – imaging, p53-positive nuclei imaging, 24 h, 48 h (AID 1508601)
# testSettings: 24/48 h, Library stock concentration: 46 uM
The whole screen tested about 5,700 compounds, of which about 85 (1%) were called active. Rule as the data show it: active = p53-positive nuclei above about 36% (passing the limit was not always enough); inactive = the rest. The list comes from a sample in which actives are over-represented; it also holds close analogues and randomly drawn compounds. Peptide text beside a SMILES is read from it. * marks the point of attachment. Cbz = O=C(OCc1ccccc1)*
Classes to choose from: active, inactive

Ask: Which outcome did this test record for the molecule Nc1ccccc1NC(=O)c1ccc(CNC(=O)OCc2cccnc2)cc1 ?
Result: inactive

Ask: Give the logged outcome of this assay for the following molecule: Nc1cccc(OCc2ccccc2)c1
Result: inactive

Ask: Please let me know the test result on file for O=C1NCCSc2c1sc1ccc(O)cc21 .
Result: inactive

Ask: Identify the outcome logged in this assay for the molecule shown: CCOC(=O)NC1CCC2C(C1)CC1C(=O)OC(C)C1C2C=Cc1ccc(-c2cccc(F)c2)cn1 (stereo not given)
Result: inactive

Ask: Called result for CN(CCC(Oc1ccc(-c2ccccc2)cc1)c1ccc(F)cc1)CC(=O)O (stereo not given)
Result: inactive

Ask: // param item: O=C1CC(c2ccc([N+](=O)[O-])cc2)=NN1c1ccccc1 ; yields the recorded call
Result: inactive

Ask: Status in this test for Cc1cc(OCc2nnc(SC3CCCC3)n2-c2cccnc2)ccc1-c1ccc(S(C)(=O)=O)cc1 ?
Result: inactive

Ask: GET /call?item= CCN(CC)c1ccc(C=NNC(=O)c2ccc(O)cc2)cc1 returns the recorded outcome of this test.
Result: inactive

Ask: Given Cc1ccc(B(O)O)cc1 , state the outcome it received in this test.
Result: inactive

Ask: What did this assay record as the result for CC(C)CC(C=O)NC(=O)C(CC(C)C)NC(=O)C(CC(C)C)NC(=O)OCc1ccccc1 (stereo not drawn) (Cbz-Leu-Leu-Leu-aldehyde; configuration not given here) ?
Result: inactive

Ask: Assay result, entry CNC(=O)c1ccc(Nc2ncc(C(F)(F)F)c(NCc3nccnc3N(C)S(C)(=O)=O)n2)cc1 — outcome?
Result: inactive

Ask: Any idea what this test logged for O=C1CN2Cc3c(ccc(Cl)c3Cl)N=C2N1 ?
Result: active

Ask: How was O=C(O)CCCCCCCCCCCNC(=O)NC12CC3CC(CC(C3)C1)C2 classified in this test?
Result: inactive

Ask: Outcome? Cc1nc(Nc2n[nH]c3c2CN(C(=O)NC(CN(C)C)c2ccccc2)C3(C)C)c2sccc2n1 (stereo not given)
Result: inactive

Ask: Outcome? C#CCOc1ccc2c(c1)c(-c1ccc(C(C)C)cc1)nc(=O)n2C(C)C
Result: inactive
